viability, T/C values, listed per item
Tested on: 429239-143-T-J1-PDC complex spheroid viability
Protocol Summary: Anticancer human tumor 429239-143-T-J1-PDC patient-derived small cell lung carcinoma cell line growth inhibition [POLQ]
Condition Notes: second compound 0.0316 µM; first compound 10 µM; active compounds read low
Quantity Kind: viability, T/C (%)

>  <Molecule>
C=CC(=O)N1CCN(c2nc(=O)n(-c3c(C)ccnc3C(C)C)c3nc(-c4c(O)cccc4F)c(F)cc23)C(C)C1 (stereo not given) + Cc1cccc(N(C)C(=O)C2C(O)CCN2c2nc(C)cc(C(F)(F)F)c2C#N)c1

>  <Numeric Readout>
98.7

$$$$
>  <Molecule>
O=C(c1cc(Cc2n[nH]c(=O)c3ccccc23)ccc1F)N1CCN(C(=O)C2CC2)CC1 + COC1C(OC(N)=O)C(O)C(Oc2ccc3c(O)c(NC(=O)c4ccc(O)c(CC=C(C)C)c4)c(=O)oc3c2C)OC1(C)C

>  <Numeric Readout>
16.1

$$$$
>  <Molecule>
COc1cc(C2c3cc4c(cc3C(OC3OC5COC(C)OC5C(O)C3O)C3COC(=O)C23)OCO4)cc(OC)c1O (stereo not given) + Nc1ccc(C#CCN(C(=O)Cc2ncc(C(F)(F)F)cc2C(F)(F)F)c2ccc(F)cc2)nn1

>  <Numeric Readout>
7.42

$$$$
>  <Molecule>
COc1cccc2c1C(=O)c1c(O)c3c(c(O)c1C2=O)CC(O)(C(=O)CO)CC3OC1CC(N)C(O)C(C)O1 (stereo not given) + COC1C(OC(N)=O)C(O)C(Oc2ccc3c(O)c(NC(=O)c4ccc(O)c(CC=C(C)C)c4)c(=O)oc3c2C)OC1(C)C

>  <Numeric Readout>
0.13

$$$$
>  <Molecule>
COc1ccc([C@@H](O)c2cc(-c3ncnc4cc(N5CCOCC5)ccc34)c(F)cc2Cl)nn1 + COC1C(OC(N)=O)C(O)C(Oc2ccc3c(O)c(NC(=O)c4ccc(O)c(CC=C(C)C)c4)c(=O)oc3c2C)OC1(C)C

>  <Numeric Readout>
8.54

$$$$

----------
Tested on: 429239-143-T-J1-PDC complex spheroid viability
Protocol Summary: Anticancer human tumor 429239-143-T-J1-PDC cell line growth inhibition [POLQ];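 also: luminescence signal used as surrogate measure of viable cells; spheroids exposed to compounds for seven days before readout; 100% = DMSO vehicle control viability as luminescence relative to vehicle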
Condition Notes: second compound 3.16 µM; first compound 0.1 µM; active compounds read low

>  <Compound>
C#Cc1c(F)ccc2cc(O)cc(-c3ncc4c(N5CC6CCC(C5)N6)nc(OCC56CCCN5CC(F)C6)nc4c3F)c12 (stereo not given) + Nc1ccc(C#CCN(C(=O)Cc2ncc(C(F)(F)F)cc2C(F)(F)F)c2ccc(F)cc2)nn1

>  <viability, T/C / %>
98

$$$$
>  <Compound>
CCc1cc2c(N3CCc4c(cc(Cn5ccnc5)cc4-c4cn(C)nc4C(F)(F)F)C3=O)cc(C)nc2c(OC)n1 + Nc1ccc(C#CCN(C(=O)Cc2ncc(C(F)(F)F)cc2C(F)(F)F)c2ccc(F)cc2)nn1

>  <viability, T/C / %>
110

$$$$
>  <Compound>
CC(C)n1c(=O)n(C)c2cnc3cc(F)c(-c4ccc(OCCCN5CCCCC5)nc4)cc3c21 + COC1C(OC(N)=O)C(O)C(Oc2ccc3c(O)c(NC(=O)c4ccc(O)c(CC=C(C)C)c4)c(=O)oc3c2C)OC1(C)C

>  <viability, T/C / %>
84.8

$$$$
>  <Compound>
CCc1c2c(nc3ccc(O)cc13)-c1cc3c(c(=O)n1C2)COC(=O)[C@]3(O)CC + COC1C(OC(N)=O)C(O)C(Oc2ccc3c(O)c(NC(=O)c4ccc(O)c(CC=C(C)C)c4)c(=O)oc3c2C)OC1(C)C

>  <viability, T/C / %>
18.5

$$$$
>  <Compound>
Cn1ncnc1[C@H]1c2n[nH]c(=O)c3cc(F)cc(c23)N[C@@H]1c1ccc(F)cc1 + COC1C(OC(N)=O)C(O)C(Oc2ccc3c(O)c(NC(=O)c4ccc(O)c(CC=C(C)C)c4)c(=O)oc3c2C)OC1(C)C

>  <viability, T/C / %>
27.8

$$$$

----------
System: 429239-143-T-J1-PDC complex spheroid viability
Protocol Summary: Anticancer human tumor 429239-143-T-J1-PDC cell line growth inhibition [POLQ];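 also: luminescence signal used as surrogate measure of viable cells; spheroids exposed to compounds for seven days before readout; 100% = DMSO vehicle control viability as luminescence relative to vehicle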
Condition Notes: second compound 10 µM; first compound 1 µM; active compounds read low
Quantity Kind: viability, T/C (%)

>  <Compound>
O=C(Nc1ccc(O)c(NS(=O)(=O)c2ccc(F)cc2)c1)c1ccc(-c2ccccc2)cc1 + Cc1cccc(N(C)C(=O)C2C(O)CCN2c2nc(C)cc(C(F)(F)F)c2C#N)c1

>  <Test Target>
429239-143-T-J1-PDC complex spheroid viability

>  <Quantity Kind>
viability, T/C

>  <Numeric Readout>
105

$$$$
>  <Compound>
C=CC(=O)N1CCN(c2nc(=O)n(-c3c(C)ccnc3C(C)C)c3nc(-c4c(O)cccc4F)c(F)cc23)C(C)C1 (stereo not drawn) + Nc1ccc(C#CCN(C(=O)Cc2ncc(C(F)(F)F)cc2C(F)(F)F)c2ccc(F)cc2)nn1

>  <Test Target>
429239-143-T-J1-PDC complex spheroid viability

>  <Quantity Kind>
viability, T/C

>  <Numeric Readout>
108

$$$$
>  <Compound>
CCc1cc2c(N3CCc4c(cc(Cn5ccnc5)cc4-c4cn(C)nc4C(F)(F)F)C3=O)cc(C)nc2c(OC)n1 + Cc1cccc(N(C)C(=O)C2C(O)CCN2c2nc(C)cc(C(F)(F)F)c2C#N)c1

>  <Test Target>
429239-143-T-J1-PDC complex spheroid viability

>  <Quantity Kind>
viability, T/C

>  <Numeric Readout>
82.5

$$$$

----------
Test system: 429239-143-T-J1-PDC complex spheroid viability
Protocol Summary: Anticancer human tumor 429239-143-T-J1-PDC cell line growth inhibition [POLQ]; active = viability on the fitted dose curve at most 10% of control; inactive = the rest;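 also: luminescence signal used as surrogate measure of viable cells; spheroids exposed to compounds for seven days before readout; 100% = DMSO vehicle control viability as luminescence relative to vehicle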
Condition Notes: second compound 3.16 µM; first compound 10 µM
Labels: label 1 for active, label 0 for inactive

>  <Compound>
C#Cc1c(F)ccc2cc(O)cc(-c3ncc4c(N5CC6CCC(C5)N6)nc(OCC56CCCN5CC(F)C6)nc4c3F)c12 (stereo not drawn) + COC1C(OC(N)=O)C(O)C(Oc2ccc3c(O)c(NC(=O)c4ccc(O)c(CC=C(C)C)c4)c(=O)oc3c2C)OC1(C)C

>  <Class Label>
label 0

$$$$
>  <Compound>
COc1cccc2c1C(=O)c1c(O)c3c(c(O)c1C2=O)CC(O)(C(=O)CO)CC3OC1CC(N)C(O)C(C)O1 (stereo not drawn) + COC1C(OC(N)=O)C(O)C(Oc2ccc3c(O)c(NC(=O)c4ccc(O)c(CC=C(C)C)c4)c(=O)oc3c2C)OC1(C)C

>  <Class Label>
label 1

$$$$
>  <Compound>
CCCS(=O)(=O)Nc1ccc(F)c(C(=O)c2c[nH]c3ncc(-c4ccc(Cl)cc4)cc23)c1F + Nc1ccc(C#CCN(C(=O)Cc2ncc(C(F)(F)F)cc2C(F)(F)F)c2ccc(F)cc2)nn1

>  <Class Label>
label 0

$$$$

----------
Tested on: 429239-143-T-J1-PDC complex spheroid viability
Protocol Summary: Anticancer human tumor 429239-143-T-J1-PDC cell line growth inhibition [POLQ]; active = viability on the fitted dose curve at most 10% of control; inactive = the rest;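 also: luminescence signal used as surrogate measure of viable cells; spheroids exposed to compounds for seven days before readout; 100% = DMSO vehicle control viability as luminescence relative to vehicle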
Condition Notes: second compound 0.0316 µM; first compound 0.1 µM
Labels: Yes for active, No for inactive

>  <Compound>
Cn1ncnc1[C@H]1c2n[nH]c(=O)c3cc(F)cc(c23)N[C@@H]1c1ccc(F)cc1 + Cc1cccc(N(C)C(=O)C2C(O)CCN2c2nc(C)cc(C(F)(F)F)c2C#N)c1

>  <Test Target>
429239-143-T-J1-PDC complex spheroid viability

>  <Class Label>
No

$$$$
>  <Compound>
CCc1c2c(nc3ccc(O)cc13)-c1cc3c(c(=O)n1C2)COC(=O)[C@]3(O)CC + Nc1ccc(C#CCN(C(=O)Cc2ncc(C(F)(F)F)cc2C(F)(F)F)c2ccc(F)cc2)nn1

>  <Test Target>
429239-143-T-J1-PDC complex spheroid viability

>  <Class Label>
Yes

$$$$
>  <Compound>
COc1cc2cc(C(=O)CCC(=O)O)sc2cc1OC + Cc1cccc(N(C)C(=O)C2C(O)CCN2c2nc(C)cc(C(F)(F)F)c2C#N)c1

>  <Test Target>
429239-143-T-J1-PDC complex spheroid viability

>  <Class Label>
No

$$$$
>  <Compound>
CCCS(=O)(=O)Nc1ccc(F)c(C(=O)c2c[nH]c3ncc(-c4ccc(Cl)cc4)cc23)c1F + COC1C(OC(N)=O)C(O)C(Oc2ccc3c(O)c(NC(=O)c4ccc(O)c(CC=C(C)C)c4)c(=O)oc3c2C)OC1(C)C

>  <Test Target>
429239-143-T-J1-PDC complex spheroid viability

>  <Class Label>
No

$$$$
>  <Compound>
CCc1cc2c(N3CCc4c(cc(Cn5ccnc5)cc4-c4cn(C)nc4C(F)(F)F)C3=O)cc(C)nc2c(OC)n1 + Cc1cccc(N(C)C(=O)C2C(O)CCN2c2nc(C)cc(C(F)(F)F)c2C#N)c1

>  <Test Target>
429239-143-T-J1-PDC complex spheroid viability

>  <Class Label>
No

$$$$
>  <Compound>
O=C(Nc1ccc(O)c(NS(=O)(=O)c2ccc(F)cc2)c1)c1ccc(-c2ccccc2)cc1 + Cc1cccc(N(C)C(=O)C2C(O)CCN2c2nc(C)cc(C(F)(F)F)c2C#N)c1

>  <Test Target>
429239-143-T-J1-PDC complex spheroid viability

>  <Class Label>
No

$$$$
>  <Compound>
C=CCn1c(=O)c2cnc(Nc3ccc(N4CCN(C)CC4)cc3)nc2n1-c1cccc(C(C)(C)O)n1 + COC1C(OC(N)=O)C(O)C(Oc2ccc3c(O)c(NC(=O)c4ccc(O)c(CC=C(C)C)c4)c(=O)oc3c2C)OC1(C)C

>  <Test Target>
429239-143-T-J1-PDC complex spheroid viability

>  <Class Label>
No

$$$$
>  <Compound>
C=CC(=O)N1CCN(c2nc(=O)n(-c3c(C)ccnc3C(C)C)c3nc(-c4c(O)cccc4F)c(F)cc23)C(C)C1 (stereo not given) + COC1C(OC(N)=O)C(O)C(Oc2ccc3c(O)c(NC(=O)c4ccc(O)c(CC=C(C)C)c4)c(=O)oc3c2C)OC1(C)C

>  <Test Target>
429239-143-T-J1-PDC complex spheroid viability

>  <Class Label>
No

$$$$
>  <Compound>
CC1COCCN1c1cc(C2(S(C)(=N)=O)CC2)nc(-c2ccnc3[nH]ccc23)n1 (stereo not given) + COC1C(OC(N)=O)C(O)C(Oc2ccc3c(O)c(NC(=O)c4ccc(O)c(CC=C(C)C)c4)c(=O)oc3c2C)OC1(C)C

>  <Test Target>
429239-143-T-J1-PDC complex spheroid viability

>  <Class Label>
No

$$$$
>  <Compound>
O=c1[nH]cc(F)c(=O)[nH]1 + COC1C(OC(N)=O)C(O)C(Oc2ccc3c(O)c(NC(=O)c4ccc(O)c(CC=C(C)C)c4)c(=O)oc3c2C)OC1(C)C

>  <Test Target>
429239-143-T-J1-PDC complex spheroid viability

>  <Class Label>
No

$$$$
